pIC50 listing for selected binders.
# assayed_system: full-length beta-Catenin (Uniprot ID P35222) (Homo sapiens (Human)) (UniProt P35222)
# Sequence (P35222 whole entry): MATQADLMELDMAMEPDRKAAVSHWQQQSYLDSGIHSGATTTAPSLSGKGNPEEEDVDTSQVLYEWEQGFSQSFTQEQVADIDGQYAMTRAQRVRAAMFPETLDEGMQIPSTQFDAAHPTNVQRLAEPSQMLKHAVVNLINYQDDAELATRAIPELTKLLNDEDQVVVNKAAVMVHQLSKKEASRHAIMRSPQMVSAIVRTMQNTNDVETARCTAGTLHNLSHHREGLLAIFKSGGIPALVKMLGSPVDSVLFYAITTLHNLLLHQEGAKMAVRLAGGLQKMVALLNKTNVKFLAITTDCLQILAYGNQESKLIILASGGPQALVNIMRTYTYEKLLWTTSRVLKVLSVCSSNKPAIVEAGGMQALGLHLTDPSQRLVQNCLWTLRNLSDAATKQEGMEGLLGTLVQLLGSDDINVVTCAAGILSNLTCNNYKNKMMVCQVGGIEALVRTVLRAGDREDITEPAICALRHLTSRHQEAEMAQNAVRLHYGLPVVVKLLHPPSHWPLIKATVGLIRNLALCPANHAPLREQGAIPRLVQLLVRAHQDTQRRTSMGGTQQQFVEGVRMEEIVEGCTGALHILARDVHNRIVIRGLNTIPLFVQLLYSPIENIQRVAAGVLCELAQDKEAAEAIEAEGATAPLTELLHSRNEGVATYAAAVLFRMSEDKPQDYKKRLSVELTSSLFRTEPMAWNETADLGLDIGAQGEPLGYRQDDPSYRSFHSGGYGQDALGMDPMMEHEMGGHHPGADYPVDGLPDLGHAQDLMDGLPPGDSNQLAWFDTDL
# assay_summary: competition fluorescence polarization; full-length beta-catenin, 5FAM-TCF4(10-53) probe as competitor
Starred links: 1 amine or outer side, 2 acyl side, 3 side chain; linkers in the order of their positions; H or OH if unused. Positions of bridges follow the written chain, without caps; N, C: chain ends. Non-standard residues stand in square brackets, D forms with d. Primed or numbered codes have the meaning given here. B5(4) = 2,2-bis(4-pentenyl)glycine = 2-amino-2-(pent-4-en-1-yl)hept-6-enoic acid (stitching residue), C=CCCCC(CCCC=C)(N[*:1])C(=O)[*:2]; B5(5) = 2,2-bis(4-pentenyl)glycine, 2-amino-2-(pent-4-en-1-yl)hept-6-enoic acid (stitching residue), C=CCCCC(CCCC=C)(N[*:1])C(=O)[*:2]; B5 = 2-amino-2-(pent-4-en-1-yl)hept-6-enoic acid, C=CCCCC(CCCC=C)(N[*:1])C(=O)[*:2]; Bta = N[C@@H](Cc1csc2ccccc12)C(=O)O; αAllylPro = C=CC[C@@]1(C(=O)O)CCCN1; S8 = C=CCCCCCC[C@](C)(N)C(=O)O; hLeu = CC(C)CC[C@H](N)C(=O)O; Abu = CC[C@H](N)C(=O)O
Please report pIC50 as the negative decimal logarithm of the molar concentration, giving only the number.

Some solved cases for reference:
binder	pIC50
Ac-[αAllylPro]D[hLeu][B5(5)]DDAAFN[S8]F[Bta]H-NH2 (staple 1-4, 4-11) [I-584]	7.48
Ac-[αAllylPro]D[Abu][B5]DDAAFN[S8]F[Bta]H-NH2 (staple 1-4, 4-11) [I-575]	7.68
Ac-[αAllylPro]D[Abu][B5(4)]DEAAFQ[S8]F[Bta]H-NH2 (staple 1-4, 4-11) [I-571]	7.49

We now examine a further binder.
# pIC50 of Ac-[αAllylPro]D[hLeu][B5(5)]DDAAFN[S8]F[Bta]H-NH2 (staple 1-4, 4-11; also: staple isomer, earlier eluting HPLC peak) [I-583] = 7.16
